Assay: DNDI: Cytotoxicity against L-6 rat myoblasts from skeletal muscle cells
Details: L6 rat skeletal muscle myoblast cells, IC50
// reported IC50 for each item listed
Give just the numeric value; µM need not be written.

Observe how each entry below is paired with its result.
N#Cc1ccccc1N1CCC(NC(c2ccc(C(F)(F)F)cc2)c2cccnc2)CC1 (configuration not stated); 52.3
O=C(c1ccccc1)N1CCC(NC(c2ccc(C(F)(F)F)cc2)c2cncs2)CC1 (configuration not stated); 76.1
O=C(NC1CCN(C(c2cncnc2)c2ccc(Cl)cc2F)CC1)c1ccc(F)cc1C(F)(F)F (configuration not stated); 71.4
N#Cc1ccc(C(O)(c2ccc(C(F)(F)F)cc2)c2cccnc2)cc1 (configuration not stated); 63.3

Q: What measured IC50 goes with CN(CC1CCCCC1)C(c1ccc(C(F)(F)F)cc1)c1cnccn1 (configuration not stated) ?
Ans: 55.6

Q: IC50 lookup needed for N#Cc1ccnc(N2CCC(NC(c3ccc(Cl)cc3)c3cccnc3)CC2)n1 (configuration not stated) , thanks.
Ans: 57.1

Q: Return reported IC50; argument: CC(C)c1ccc(S(=O)(=O)N2CCC(NC(c3cnccn3)c3ccc(F)cc3F)CC2)cc1 (configuration not stated)
Ans: 21.9

---

Tested on: L6
Assay: DNDI: Cytotoxicity against L-6 rat myoblasts from skeletal muscle cells
Settings: L6 rat skeletal muscle myoblast cells
quantity_measured: IC50 (µM)
Unit µM implied. Number only.

The cases that follow already have their IC50 on record.
O=C(C1CCCCC1)N1CCN(C(c2cccnc2)c2ccc(Cl)cc2F)CC1 (stereo unspecified); 61.7
COc1cccc(C(O)(c2ccc(Cl)cc2)c2cccnc2)c1 (stereo unspecified); 85.6
OC(c1ccc(Cl)cc1)(c1ccc(Br)cc1)c1cccnc1 (stereo unspecified); 57

Q: For Clc1ccc(C(c2cccnc2)c2ccccc2Cl)cc1 (stereo unspecified) , what is its reported IC50?
Ans: 62.6

Q: Query: IC50; subject: CC(C)CNC(c1ccc(Cl)cc1)(c1cccnc1)c1ccccc1Cl (stereo unspecified)
Ans: 59.2

Q: Please report the recorded IC50 for CC(C)(C)C(=O)N1CCN(C(c2ccc(C(F)(F)F)cc2)c2cccnc2)CC1 (stereo unspecified) .
Ans: 58.6

Q: Give the measured IC50 of CC(C)CCON=C(Cc1cccnc1)c1ccc(Cl)cc1Cl .
Ans: 58.7

Q: What does the record list as IC50 for COc1ccc(C(O)(c2ccc(Cl)cc2)c2cccnc2)cc1 (stereo unspecified) ?
Ans: 68.1

---

// reported IC50 for each item listed
Assay: DNDI: Cytotoxicity against L-6 rat myoblasts from skeletal muscle cells
Settings: L6 rat skeletal muscle myoblast cells, IC50

CCN(CC)C(=O)N1CCC(NC(c2ccc(Cl)cc2)c2cccnc2)CC1 (stereo unspecified); > 100 µM
CC(C)CC(O)(c1ccc(Cl)cc1)c1cncnc1 (stereo unspecified); > 100 µM
Cc1ccncc1C(O)(c1ccc(Cl)cc1)c1ccc(C(F)(F)F)cc1 (stereo unspecified); 56.5 µM
CCn1cc(C(NC2CCN(c3ccc(S(C)(=O)=O)cc3)CC2)c2cccnc2)cn1 (stereo unspecified); > 100 µM

Q: Quick one: IC50 for N#Cc1ccc(C(c2cccnc2)N2CCC(NC(=O)c3cccc(F)c3F)CC2)cc1 (stereo unspecified) ?
Ans: > 100 µM

Q: Tell me the measured IC50 of OC(c1ccc(Cl)cc1)(c1cccnc1)c1cnc(OCC2CC2)nc1 (stereo unspecified) , please.
Ans: 60.4 µM

Q: Fill in the blank: the reported IC50 of OC(c1ccc(Cl)cc1)(c1cccnc1)c1cncnc1 (stereo unspecified) is ____.
Ans: > 100 µM

Q: What value of IC50 has been reported for the following molecule? O=C(c1ccno1)N1CCC(NC(c2ccc(C(F)(F)F)cc2)c2cccnc2)CC1 (stereo unspecified)
Ans: > 100 µM

Q: Please look up its IC50: CC(C)CS(=O)(=O)NC1CCN(C(c2ccc(C(F)(F)F)cc2)c2cnccn2)CC1 (stereo unspecified)
Ans: 62.3 µM

Q: Which IC50 is listed for Cc1cnc(C(O)(c2ccc(Cl)cc2)c2ccc(C(F)(F)F)cc2)cn1 (stereo unspecified) ?
Ans: 61.6 µM

Q: State the recorded IC50 for this entry: CCCCC(NCC1CCCCC1)c1cccnc1 (stereo unspecified)
Ans: > 100 µM

Values from ChEMBL document CHEMBL1862790
